protocol-description: Bidirectional permeability of sofosbuvir in caco-2 monolayers
condition-parameters: human, Caco-2, pH 7.4
result-type: efflux ratio at 120 min, 10 μM

• CC(C)OC(=O)[C@H](C)N[P@](=O)(OC[C@H]1O[C@@H](n2ccc(=O)[nH]c2=O)[C@](C)(F)[C@@H]1O)Oc1ccccc1 = 43.6

###

protocol-description: Bidirectional permeability of sofosbuvir in caco-2 monolayers
condition-parameters: human, Caco-2, pH 7.4
result-type: Papp A→B at 120 min, 10 μM (×10⁻⁶ cm/s)

• CC(C)OC(=O)[C@H](C)N[P@](=O)(OC[C@H]1O[C@@H](n2ccc(=O)[nH]c2=O)[C@](C)(F)[C@@H]1O)Oc1ccccc1 = 0.25

###

protocol-description: Phase I pharmacokinetic study of the combination of Compound I and sofosbuvir in healthy volunteers
Type: in vivo, human
condition-parameters: both sexes, human, plasma, oral; Compound I analyte, SOF + Comp I, n = 18
result-type: Cmax (ng/mL)

- COC[C@H]1C[C@@H](c2ncc(-c3ccc4c(c3)COc3cc5c(ccc6nc([C@@H]7CC[C@H](C)N7C(=O)[C@@H](NC(=O)OC)C(C)C)[nH]c65)cc3-4)[nH]2)N(C(=O)[C@H](NC(=O)OC)c2ccccc2)C1: 1020

###

protocol-description: Phase I pharmacokinetic study of the combination of Compound I and sofosbuvir in healthy volunteers
Format: in vivo, human
condition-parameters: both sexes, human, plasma, oral, 100 mg; Comp I alone, n = 18; read-out: AUCtau, Mean
result-type: AUC (ng·h/mL)

* COC[C@H]1C[C@@H](c2ncc(-c3ccc4c(c3)COc3cc5c(ccc6nc([C@@H]7CC[C@H](C)N7C(=O)[C@@H](NC(=O)OC)C(C)C)[nH]c65)cc3-4)[nH]2)N(C(=O)[C@H](NC(=O)OC)c2ccccc2)C1 [Compound I] | 7690

###

protocol-description: Phase I pharmacokinetic study of the combination of Compound I and sofosbuvir in healthy volunteers
Type: in vivo, human
condition-parameters: both sexes, human, in vivo, plasma analyte after SOF alone, n = 18; read-out: AUClast, Mean
result-type: AUC(0-t) (ng·h/mL)

• CC(C)OC(=O)[C@H](C)N[P@](=O)(OC[C@H]1O[C@@H](n2ccc(=O)[nH]c2=O)[C@](C)(F)[C@@H]1O)Oc1ccccc1 = 1200

###

protocol-description: Phase I pharmacokinetic study of the combination of Compound I and sofosbuvir in healthy volunteers
Format: in vivo, human
condition-parameters: both sexes, human, in vivo, plasma analyte after SOF alone, n = 18
result-type: Cmax (ng/mL)

- CC(C)OC(=O)[C@H](C)N[P@](=O)(OC[C@H]1O[C@@H](n2ccc(=O)[nH]c2=O)[C@](C)(F)[C@@H]1O)Oc1ccccc1: 964

###

protocol-description: Phase I pharmacokinetic study of the combination of Compound I and sofosbuvir in healthy volunteers
Type: in vivo, human
condition-parameters: both sexes, human, in vivo, plasma analyte after SOF alone, healthy volunteers, n = 18; read-out: AUCinf, Mean
result-type: AUC(0-inf) (ng·h/mL)

- CC(C)OC(=O)[C@H](C)N[P@](=O)(OC[C@H]1O[C@@H](n2ccc(=O)[nH]c2=O)[C@](C)(F)[C@@H]1O)Oc1ccccc1 [Sofosbuvir]: 1200

###

protocol-description: Phase I pharmacokinetic study of the combination of Compound I and sofosbuvir in healthy volunteers
Format: in vivo, human
condition-parameters: both sexes, human, plasma, oral, 100 mg; Comp I alone, n = 18
result-type: Cmax (ng/mL)

• COC[C@H]1C[C@@H](c2ncc(-c3ccc4c(c3)COc3cc5c(ccc6nc([C@@H]7CC[C@H](C)N7C(=O)[C@@H](NC(=O)OC)C(C)C)[nH]c65)cc3-4)[nH]2)N(C(=O)[C@H](NC(=O)OC)c2ccccc2)C1 [Compound I] = 963

Origin of the recorded values: patent US20140343008A1
